# target entity: Microphthalmia-associated transcription factor (Homo sapiens, UniProt O75030)
# Sequence (O75030 whole entry): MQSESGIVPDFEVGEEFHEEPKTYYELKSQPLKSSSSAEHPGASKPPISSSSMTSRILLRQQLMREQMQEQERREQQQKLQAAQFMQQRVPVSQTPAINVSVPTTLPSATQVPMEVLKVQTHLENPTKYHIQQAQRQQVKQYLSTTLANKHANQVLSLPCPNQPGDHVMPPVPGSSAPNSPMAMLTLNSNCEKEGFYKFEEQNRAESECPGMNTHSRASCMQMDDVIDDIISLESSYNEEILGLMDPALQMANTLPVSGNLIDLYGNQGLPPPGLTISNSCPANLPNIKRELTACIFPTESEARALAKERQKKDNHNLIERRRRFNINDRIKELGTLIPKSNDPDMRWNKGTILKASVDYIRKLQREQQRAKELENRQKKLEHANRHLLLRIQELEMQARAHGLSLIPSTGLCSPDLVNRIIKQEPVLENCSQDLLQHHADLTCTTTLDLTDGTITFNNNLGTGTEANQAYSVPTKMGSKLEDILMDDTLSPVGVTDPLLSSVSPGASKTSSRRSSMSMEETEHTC
# measurement description: TRPM1 promoter luciferase signal decrease, dose response, MITF inhibitor project, cell-based, SK-MEL-5, cherry-picked, set 3 (AID 493073);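 further: SK-MEL-5 melanoma cells with luciferase driven by the MITF target TRPM1 promoter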
# Assay type: functional
Calls of active or inactive are those of the source.
observation type: AC50

Cc1ccc(-c2cc3onc(-c4ccccc4)c3c(=O)n2C)cc1 : 9.76 µM (active)
COc1cccc(-c2csc3ncnc(Sc4nnnn4C)c23)c1 : 25 µM (active)
COc1ccc(S(=O)(=O)Nc2ccc(O)c3ccccc23)cc1 : 9.07 µM (active)
COc1ccc(N(C(=O)CCl)C(C(=O)NC2CCCCC2)c2cccnc2)cc1 (stereo not given) : 5.87 µM (active)

Could you now look at the following compound, please?
Identify measured AC50 associated with Cc1ccc(C)c(NC(=O)/C(C#N)=C/c2cn(CC(=O)NCc3ccco3)c3ccccc23)c1
6.56 µM (active)

* * *

# target entity: Type-1 angiotensin II receptor (Homo sapiens, UniProt P30556)
# Sequence (P30556 whole entry): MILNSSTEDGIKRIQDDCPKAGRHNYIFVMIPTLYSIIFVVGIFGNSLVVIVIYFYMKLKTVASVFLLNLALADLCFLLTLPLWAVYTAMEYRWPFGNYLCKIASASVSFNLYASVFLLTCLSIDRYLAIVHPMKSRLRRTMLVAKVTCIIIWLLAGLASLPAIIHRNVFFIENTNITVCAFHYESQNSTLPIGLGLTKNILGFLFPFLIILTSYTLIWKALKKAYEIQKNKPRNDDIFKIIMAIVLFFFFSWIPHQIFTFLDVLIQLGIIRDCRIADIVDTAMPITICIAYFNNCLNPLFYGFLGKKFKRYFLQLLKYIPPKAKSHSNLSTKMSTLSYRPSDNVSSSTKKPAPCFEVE
# measurement description: AT1 receptor antagonists, dose response, selectivity assay for APJ receptor antagonist project, cell-based, uHTS hits (AID 463214);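 further: antagonist potency against angiotensin II stimulated AT1 response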
# Format: functional
The source made the active and inactive calls.
molecules and their reported IC50

# count of solved cases: 3
CCC1CCCCN1S(=O)(=O)c1ccc(NC(=O)c2nc(S(C)(=O)=O)ncc2Cl)cc1 (centres undefined) : 5.9 µM (active)
CC(NC(=O)COc1ccccc1)C(=O)OCC(=O)c1cc2ccccc2o1 (centres undefined) : 13.8 µM (active)
Cc1ccc(N/N=C2/C(=O)Nn3c2nc(C)cc3=O)cc1 : > 40 µM (not active)

Look up and state reported IC50 for O=C(C[n+]1ccc(-c2cc(C(=O)Nc3cccc(C(F)(F)F)c3)c3ccccc3n2)cc1)c1cccc([N+](=O)[O-])c1
26 µM (not active)

Source of measurements: ChEMBL document CHEMBL1201862
